Each recorded value in this set is attributed to paper PMC5069662.

Target: Thermolysin (Bacillus thermoproteolyticus, UniProt P00800)
Sequence (P00800 233-548): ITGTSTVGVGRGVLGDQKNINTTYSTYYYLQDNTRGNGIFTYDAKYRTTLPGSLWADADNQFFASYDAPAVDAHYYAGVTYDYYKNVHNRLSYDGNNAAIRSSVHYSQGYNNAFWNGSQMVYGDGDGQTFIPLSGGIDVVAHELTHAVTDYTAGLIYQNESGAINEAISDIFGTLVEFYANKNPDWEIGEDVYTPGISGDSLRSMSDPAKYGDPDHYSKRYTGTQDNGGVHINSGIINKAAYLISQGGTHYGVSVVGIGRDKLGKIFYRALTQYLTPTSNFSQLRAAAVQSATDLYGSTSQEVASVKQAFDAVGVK
Experimental readout: Kd (nM)
# number only, unit nM dropped from output

Inquiry: Which Kd reading was recorded for the molecule "CC(C)C[C@H](NP(=O)(O)O[C@@H]1O[C@@H](C)[C@H](O)[C@@H](O)[C@H]1O)C(=O)N[C@@H](Cc1c[nH]c2ccccc12)C(=O)O" ?
Reply text: 32.1
